# Assay target: S. agalactiae γ-GCS-GS (Streptococcus agalactiae serotype V)
# Assay text: γ-GCS activity assay based on ADP formation, S. agalactiae γ-GCS-GS
# Format: biochemical
# Parameters: corresponded to full-length S. agalactiae γ-GCS-GS with an N-terminal His8-tag; made in house; host or cells: E. coli SG13009 with pQE30-gshAB plus pREP4 or pRARE
Measure: Ki (mM)
Return type: number; implicit unit mM.

NC(CCP(=O)(O)O)C(=O)O (racemic) = 13

Next item in the queue.
Memo: CCCC[S@](=N)(=O)CC[C@H](N)C(=O)O [L-S—BSO, L-buthionine-S-sulfoximine, reference compound] , reported Ki: 4.9

* * *

# Assay target: S. mutans γ-GCS-GS (Streptococcus mutans serotype c)
# Sequence (Q8DW15 whole entry): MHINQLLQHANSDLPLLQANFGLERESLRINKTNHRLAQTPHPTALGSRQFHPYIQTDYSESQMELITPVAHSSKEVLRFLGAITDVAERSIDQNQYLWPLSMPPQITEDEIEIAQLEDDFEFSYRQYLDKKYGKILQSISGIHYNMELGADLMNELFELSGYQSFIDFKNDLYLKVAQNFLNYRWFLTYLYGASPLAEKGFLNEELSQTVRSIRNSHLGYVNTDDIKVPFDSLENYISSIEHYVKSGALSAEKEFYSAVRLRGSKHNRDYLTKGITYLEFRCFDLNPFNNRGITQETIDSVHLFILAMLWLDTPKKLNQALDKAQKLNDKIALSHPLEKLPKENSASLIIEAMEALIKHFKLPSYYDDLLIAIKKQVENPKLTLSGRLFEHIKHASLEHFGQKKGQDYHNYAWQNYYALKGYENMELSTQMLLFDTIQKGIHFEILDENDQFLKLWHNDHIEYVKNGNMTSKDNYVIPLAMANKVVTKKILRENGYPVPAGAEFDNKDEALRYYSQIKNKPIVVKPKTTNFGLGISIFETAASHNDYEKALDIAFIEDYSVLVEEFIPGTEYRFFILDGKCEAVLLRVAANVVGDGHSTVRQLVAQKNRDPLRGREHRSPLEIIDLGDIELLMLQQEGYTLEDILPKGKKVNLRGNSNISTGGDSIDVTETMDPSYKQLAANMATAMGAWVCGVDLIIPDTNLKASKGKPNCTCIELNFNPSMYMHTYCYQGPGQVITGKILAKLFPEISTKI
Measure: Ki
Could you write the number and then its unit?

get_value(item= N[C@@H](CCC(=O)N[C@@H](CS)C(=O)NCC(=O)O)C(=O)O [GSH, L-γ-glutamyl-L-cysteinylglycine, reference compound] , readout=Ki) returns 67 mM

* * *

# Assay target: UniProtKB Q8DXM9
# Sequence (Q8DXM9 1-750): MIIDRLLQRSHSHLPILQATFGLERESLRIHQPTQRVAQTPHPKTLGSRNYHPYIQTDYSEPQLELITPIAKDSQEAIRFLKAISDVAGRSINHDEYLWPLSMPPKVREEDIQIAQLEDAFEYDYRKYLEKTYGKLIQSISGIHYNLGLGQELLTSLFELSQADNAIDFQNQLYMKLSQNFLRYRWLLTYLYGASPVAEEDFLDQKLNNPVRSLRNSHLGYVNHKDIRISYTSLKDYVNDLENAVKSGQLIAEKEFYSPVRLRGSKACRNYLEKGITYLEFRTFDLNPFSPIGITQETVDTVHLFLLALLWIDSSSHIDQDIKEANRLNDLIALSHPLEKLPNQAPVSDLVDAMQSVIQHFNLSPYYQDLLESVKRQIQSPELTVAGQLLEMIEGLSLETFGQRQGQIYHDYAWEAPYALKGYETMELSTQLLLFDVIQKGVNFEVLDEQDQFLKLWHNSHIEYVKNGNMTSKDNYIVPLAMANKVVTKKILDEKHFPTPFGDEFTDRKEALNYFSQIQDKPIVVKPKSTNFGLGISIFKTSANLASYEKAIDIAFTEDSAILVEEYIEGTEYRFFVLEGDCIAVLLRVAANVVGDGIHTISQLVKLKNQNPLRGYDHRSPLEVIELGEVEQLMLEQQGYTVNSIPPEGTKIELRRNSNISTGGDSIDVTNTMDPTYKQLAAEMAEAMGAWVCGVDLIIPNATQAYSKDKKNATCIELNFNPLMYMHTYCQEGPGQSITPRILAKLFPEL
# Assay text: γ-GCS activity assay based on ADP formation, S. agalactiae γ-GCS-GS
# Format: biochemical
# Parameters: corresponded to full-length S. agalactiae γ-GCS-GS with an N-terminal His8-tag; made in house; host or cells: E. coli SG13009 with pQE30-gshAB plus pREP4 or pRARE
Measure: Ki

CS(=N)(=O)CC[C@H](N)C(=O)O (mixture of isomers) = > 100 mM

Log: UniProtKB Q8DXM9, molecule NC(CCCP(=O)(O)O)C(=O)O (racemic) , Ki = > 100 mM
